settings: 338.15 K; 101.33 kPa; Liquid
Numbers after ± are expanded uncertainties.
List of viscosity values.
In your response, the unit should come after the numeric value.

| MOLECULE | viscosity |
| --- | --- |
| CCCCCCCCCCCCOS(=O)(=O)[O-].CCCCn1cc[n+](CCC#N)c1 [1-butyl-3-(2-cyanoethyl)-1H-imidazol-3-ium dodecyl sulfate] | 235 ± 10 mPa·s |

Lookup result for CCCCCCCCCCn1cc[n+](CCC#N)c1.O=C([O-])c1cccc(S(=O)(=O)O)c1 [3-(2-cyanoethyl)-1-decylimidazolium 3-sulfobenzoate] ; measured viscosity: 623 ± 44 mPa·s

Lookup result for CCCCCCCCCCCCOS(=O)(=O)[O-].CCCCCCCCCCn1cc[n+](CCC#N)c1 [3-(2-cyanoethyl)-1-decylimidazolium dodecylsulfate] ; measured viscosity: 904 ± 72 mPa·s

Lookup result for CCCCn1cc[n+](CCC#N)c1.O=S(=O)([O-])c1ccccc1 [1-butyl-3-(2-cyanoethyl)-1H-imidazolium benzenesulfonate] ; measured viscosity: 109 ± 4 mPa·s
